protocol.conditions: 318 K, Capillary rise
± gives the expanded uncertainty stated by the source.
Reported surface tension liquid-gas values for a set of molecules
State the value with its unit after it.

Examples with their reported surface tension liquid-gas follow.
[
  {
    "molecule": "CCCCC[N+](CC)(CC)CC.O=S(=O)([N-]S(=O)(=O)C(F)(F)F)C(F)(F)F [triethylpentylammonium bis(trifluoromethylsulfonyl)imide]",
    "surface tension liquid-gas": "34.3 ± 0.5 mN/m"
  },
  {
    "molecule": "CCCCCC[N+](CC)(CC)CC.O=S(=O)([N-]S(=O)(=O)C(F)(F)F)C(F)(F)F [triethylhexylammonium bis((trifluoromethyl)sulfonyl)imide]",
    "surface tension liquid-gas": "32.5 ± 0.5 mN/m"
  },
  {
    "molecule": "CCCCCCCC[N+](CC)(CC)CC.O=S(=O)([N-]S(=O)(=O)C(F)(F)F)C(F)(F)F [triethyloctylammonium bis[(trifluoromethyl)sulfonyl]imide]",
    "surface tension liquid-gas": "31.4 ± 0.5 mN/m"
  }
]

Please look at the following molecule next.
Measured surface tension liquid-gas, CCCCCCCCCCCC[N+](CC)(CC)CC.O=S(=O)([N-]S(=O)(=O)C(F)(F)F)C(F)(F)F : 29.9 ± 0.5 mN/m

----------
protocol.conditions: 328 K, Capillary rise
reported.endpoint: surface tension liquid-gas (mN/m)
Expressed in mN/m, but write only the number.

Worked set:
[
  {
    "compound": "CCCCCCCC[N+](CC)(CC)CC.O=S(=O)([N-]S(=O)(=O)C(F)(F)F)C(F)(F)F [triethyloctylammonium bis[(trifluoromethyl)sulfonyl]imide]",
    "val": 30.6
  },
  {
    "compound": "CCCCC[N+](CC)(CC)CC.O=S(=O)([N-]S(=O)(=O)C(F)(F)F)C(F)(F)F [triethylpentylammonium bis(trifluoromethylsulfonyl)imide]",
    "val": 33.6
  },
  {
    "compound": "CCCCCCCCCCCC[N+](CC)(CC)CC.O=S(=O)([N-]S(=O)(=O)C(F)(F)F)C(F)(F)F",
    "val": 29.1
  }
]

API: the following record is the query input.
Reported surface tension liquid-gas ( CCCCCC[N+](CC)(CC)CC.O=S(=O)([N-]S(=O)(=O)C(F)(F)F)C(F)(F)F [triethylhexylammonium bis((trifluoromethyl)sulfonyl)imide] ) = 31.7

----------
Below, each of the compounds is paired with its reported mass density value.
protocol.conditions: 308 K; 101.33 kPa; Liquid; Pycnometric method
Field format: number, assumed kg/m3, no unit text.

[
  {
    "compound": "CCCCCCCCCCCC[N+](CC)(CC)CC.O=S(=O)([N-]S(=O)(=O)C(F)(F)F)C(F)(F)F",
    "uom": "kg/m3",
    "mass density": 1183.1
  },
  {
    "compound": "CCCCCC[N+](CC)(CC)CC.O=S(=O)([N-]S(=O)(=O)C(F)(F)F)C(F)(F)F [triethylhexylammonium bis((trifluoromethyl)sulfonyl)imide]",
    "uom": "kg/m3",
    "mass density": 1283.4
  },
  {
    "compound": "CCCCCCCC[N+](CC)(CC)CC.O=S(=O)([N-]S(=O)(=O)C(F)(F)F)C(F)(F)F [triethyloctylammonium bis[(trifluoromethyl)sulfonyl]imide]",
    "uom": "kg/m3",
    "mass density": 1242.9
  }
]

Lab note: next compound to report on.
For reference, reported mass density for CCCCC[N+](CC)(CC)CC.O=S(=O)([N-]S(=O)(=O)C(F)(F)F)C(F)(F)F [triethylpentylammonium bis(trifluoromethylsulfonyl)imide] stands at 1313.2

All figures here come from the NIST ThermoML archive (doi:10.1016/j.jct.2013.05.031).
